# measurement_target: T1, human ferroportin (SLC40A1) fused in frame with GFP, stably expressed in HEK293 cells (human, UniProt Q9NP59 1-571)
# T1 sequence (looked up): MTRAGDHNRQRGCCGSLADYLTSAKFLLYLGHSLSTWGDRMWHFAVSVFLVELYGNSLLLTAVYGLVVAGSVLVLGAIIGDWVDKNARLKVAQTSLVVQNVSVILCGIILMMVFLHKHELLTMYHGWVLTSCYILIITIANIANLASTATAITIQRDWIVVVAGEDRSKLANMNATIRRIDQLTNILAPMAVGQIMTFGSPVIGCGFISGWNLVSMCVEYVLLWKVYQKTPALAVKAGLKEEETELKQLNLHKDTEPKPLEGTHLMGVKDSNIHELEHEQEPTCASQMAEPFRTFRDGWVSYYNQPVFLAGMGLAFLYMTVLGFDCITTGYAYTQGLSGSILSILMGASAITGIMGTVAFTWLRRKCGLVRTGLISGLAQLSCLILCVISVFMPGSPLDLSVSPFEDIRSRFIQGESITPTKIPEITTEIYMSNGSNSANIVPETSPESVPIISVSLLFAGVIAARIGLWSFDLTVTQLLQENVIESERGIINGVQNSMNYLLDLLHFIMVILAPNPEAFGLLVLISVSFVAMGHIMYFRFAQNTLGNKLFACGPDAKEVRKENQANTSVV
# procedure_details: cell-based or functional assay
Starred links: 1 amine or outer side, 2 acyl side, 3 side chain; linkers in the order of their positions; H or OH if unused. Positions of bridges follow the written chain, without caps; N, C: chain ends. Non-standard residues stand in square brackets, D forms with d. Groups on a side chain read outwards from the residue. *: point of attachment. N‑(CH2CH2C(Ph)2H)Gly = N-substituted glycine carrying a 3,3-diphenylpropyl group, O=C(CN(CCC(c1ccccc1)c1ccccc1)[*:1])[*:2]; Tet2 = (S)-2-amino-4-(1H-tetrazol-5-yl)butanoic acid, O=C([C@H](CCc1nn[nH]n1)N[*:1])[*:2]; Ala(1H-tetrazol-5-yl) = N[C@@H](Cc1nnn[nH]1)C(=O)O; C18 diacid = O=C(O)CCCCCCCCCCCCCCCCC(=O)*; Dip = N[C@H](C(=O)O)C(c1ccccc1)c1ccccc1; His(τ-Me) = Cn1cnc(C[C@H](N)C(=O)O)c1; Palmitoyl = CCCCCCCCCCCCCCCC(=O)*; β3hF = N[C@H](CC(=O)O)Cc1ccccc1; PEG4 = NCCOCCOCCOCCOCCC(=O)O; Isovaleryl = CC(C)CC(=O)*; AEEA = NCCOCCOCC(=O)O; Ahx = NCCCCCC(=O)O

# binder, qualifier_sign, FPN EC50, nM
rows = [
    ("Isovaleryl-ET[N‑(CH2CH2-imidazol4-yl)Gly][Dip]PAIK([Ahx-Palmitoyl])[β3hF]-NH2 [Isovaleric Acid-E-T-[N-(CH2CH2-imidazol4-yl)Gly]-[Dpa]-P-A-I-[Lys(Ahx_Palm)]-[bhPhe]-NH2]", ">", 3000),
    ("Isovaleryl-ETH[Dip]PAIK([PEG4-Palmitoyl])[β3hF]-NH2 (SMILES CCCCCCCCCCCCCCCC(=O)NCCOCCOCCOCCOCCC(=O)NCCCC[C@H](NC(=O)[C@@H](NC(=O)[C@H](C)NC(=O)[C@@H]1CCCN1C(=O)[C@@H](NC(=O)[C@H](Cc1c[nH]cn1)NC(=O)[C@@H](NC(=O)[C@H](CCC(=O)O)NC(=O)CC(C)C)[C@@H](C)O)C(c1ccccc1)c1ccccc1)[C@@H](C)CC)C(=O)N[C@H](CC(N)=O)Cc1ccccc1) [Isovaleric Acid-E-T-H-[Dpa]-P-A-I-[Lys(2PEG4_Palm)]-[bhPhe]-NH2]", "=", 32.7),
    ("Isovaleryl-KTH[Dip]PAIK([Ahx-Palmitoyl])[β3hF]E-NH2 (lactam 1-10; SMILES CCCCCCCCCCCCCCCC(=O)NCCCCCC(=O)NCCCC[C@@H]1NC(=O)[C@H]([C@@H](C)CC)NC(=O)[C@H](C)NC(=O)[C@@H]2CCCN2C(=O)[C@H](C(c2ccccc2)c2ccccc2)NC(=O)[C@H](Cc2c[nH]cn2)NC(=O)[C@H]([C@@H](C)O)NC(=O)[C@@H](NC(=O)CC(C)C)CCCCNC(=O)CC[C@@H](C(N)=O)NC(=O)C[C@H](Cc2ccccc2)NC1=O) [Isovaleric Acid-K-T-H-[Dpa]-P-A-I-[Lys(Ahx_Palm)]-[bhPhe]-E-NH2; (K and E cyclized)]", "=", 184),
    ("Isovaleryl-ETH[Dip]PAIK([Ahx-C22])[β3hF]-NH2 [Isovaleric Acid-E-T-H-[Dpa]-P-A-I-[Lys(Ahx_C22)]-[bhPhe]-NH2]", "=", 1330),
    ("Isovaleryl-[Ala(1H-tetrazol-5-yl)]TH[Dip]PAIK(Ac)[β3hF][dK]A-NH2 (SMILES CC[C@H](C)[C@H](NC(=O)[C@H](C)NC(=O)[C@@H]1CCCN1C(=O)[C@@H](NC(=O)[C@H](Cc1c[nH]cn1)NC(=O)[C@@H](NC(=O)[C@H](Cc1nnn[nH]1)NC(=O)CC(C)C)[C@@H](C)O)C(c1ccccc1)c1ccccc1)C(=O)N[C@@H](CCCCNC(C)=O)C(=O)N[C@H](CC(=O)N[C@H](CCCCN)C(=O)N[C@@H](C)C(N)=O)Cc1ccccc1) [Isovaleric Acid-[Tet1]-T-H-[Dpa]-P-A-I-[Lys(Ac)]-[bhPhe]-[(D)Lys]-A-NH2]", "=", 18.9),
    ("Isovaleryl-ETH[Dip]PLIK([Ahx-Palmitoyl])[β3hF]-NH2 [Isovaleric Acid-E-T-H-[Dpa]-P-L-I-[Lys(Ahx_Palm)]-[bhPhe]-NH2]", "=", 372),
    ("Isovaleryl-ETH[N‑(CH2CH2C(Ph)2H)Gly]PAIK([Ahx-Palmitoyl])[β3hF]-NH2 [Isovaleric Acid-E-T-H-[N-(CH2CH2C(Ph)2H)Gly]-P-A-I-[Lys(Ahx_Palm)]-[bhPhe]-NH2]", ">", 3000),
    ("Isovaleryl-ETH[Dip]P[tBuAlanine]IK([Ahx-Palmitoyl])[β3hF]-NH2 [Isovaleric Acid-E-T-H-[Dpa]-P-[t-BuAlanine]-I-[Lys(Ahx_Palm)]-[bhPhe]-NH2]", "=", 34.2),
    ("Isovaleryl-ETH[Dip]PFI[dK][β3hF]K([Ahx-Palmitoyl])-NH2 (SMILES CCCCCCCCCCCCCCCC(=O)NCCCCCC(=O)NCCCC[C@H](NC(=O)C[C@H](Cc1ccccc1)NC(=O)[C@@H](CCCCN)NC(=O)[C@@H](NC(=O)[C@H](Cc1ccccc1)NC(=O)[C@@H]1CCCN1C(=O)[C@@H](NC(=O)[C@H](Cc1c[nH]cn1)NC(=O)[C@@H](NC(=O)[C@H](CCC(=O)O)NC(=O)CC(C)C)[C@@H](C)O)C(c1ccccc1)c1ccccc1)[C@@H](C)CC)C(N)=O) [Isovaleric Acid-E-T-H-[Dpa]-P-F-I-[(D)Lys]-[bhPhe]-[Lys(Ahx_Palm)]-NH2]", "=", 24.1),
    ("Isovaleryl-ETHFPAIK([AEEA-AEEA-Ahx-C18 diacid])FEPRSKGAK-NH2 [Isovaleric Acid-E-T-H-F-P-A-I-[Lys(1Peg2_1Peg2_Ahx_C18_Diacid)]-F-E-P-R-S-K-G-A-K-NH2]", "=", 588),
    ("Isovaleryl-[Tet2]T[His(τ-Me)][Dip]PIIK([Ahx-Palmitoyl])[β3hF]-NH2 (SMILES CCCCCCCCCCCCCCCC(=O)NCCCCCC(=O)NCCCC[C@H](NC(=O)[C@@H](NC(=O)[C@@H](NC(=O)[C@@H]1CCCN1C(=O)[C@@H](NC(=O)[C@H](Cc1cn(C)cn1)NC(=O)[C@@H](NC(=O)[C@H](CCc1nn[nH]n1)NC(=O)CC(C)C)[C@@H](C)O)C(c1ccccc1)c1ccccc1)[C@@H](C)CC)[C@@H](C)CC)C(=O)N[C@H](CC(N)=O)Cc1ccccc1) [Isovaleric Acid-[Tet2]-T-[His_1Me]-[Dpa]-P-I-I-[Lys(Ahx_Palm)]-[bhPhe]-NH2]", "=", 101),
    ("Isovaleryl-E[N‑(CH2CH2OH)Gly]H[Dip]PAIK([Ahx-Palmitoyl])[β3hF]-NH2 [Isovaleric Acid-E-[N-(CH2CH2OH)Gly]-H-[Dpa]-P-A-I-[Lys(Ahx_Palm)]-[bhPhe]-NH2]", "=", 2230),
]
